Reference source for all entries: patent US20200339702A1

testTarget: T1, rhesus monkey ERBB3 human Fc tagged recombinant protein (rhesus monkey (Macaca mulatta), UniProt P21860 20-643 (human entry), limits assumed)
T1 construct: also called rhesus ERBB3-Fc; rhERBB3
T1 chain: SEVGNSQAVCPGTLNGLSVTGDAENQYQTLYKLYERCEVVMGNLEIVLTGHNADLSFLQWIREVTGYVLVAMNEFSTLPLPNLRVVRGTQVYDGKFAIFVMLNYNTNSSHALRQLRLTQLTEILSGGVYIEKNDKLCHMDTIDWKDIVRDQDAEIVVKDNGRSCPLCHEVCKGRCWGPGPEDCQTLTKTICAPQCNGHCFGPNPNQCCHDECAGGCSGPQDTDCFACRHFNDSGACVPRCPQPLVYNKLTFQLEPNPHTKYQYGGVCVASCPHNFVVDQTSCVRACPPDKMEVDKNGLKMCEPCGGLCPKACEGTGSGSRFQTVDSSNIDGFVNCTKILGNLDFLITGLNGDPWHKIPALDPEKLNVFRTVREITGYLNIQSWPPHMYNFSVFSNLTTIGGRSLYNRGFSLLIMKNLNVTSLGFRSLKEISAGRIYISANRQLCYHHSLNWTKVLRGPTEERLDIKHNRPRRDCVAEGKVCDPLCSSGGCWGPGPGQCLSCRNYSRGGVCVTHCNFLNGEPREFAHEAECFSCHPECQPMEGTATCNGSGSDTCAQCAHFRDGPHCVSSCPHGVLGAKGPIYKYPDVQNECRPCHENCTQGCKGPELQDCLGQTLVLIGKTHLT
procedureText: direct binding ELISA on coated rhesus ERBB3-Fc, IgG1 titrated
valueType: binding result

15G11-DI7 IgG1 (antibody, V domains shown, Human IgG1 format, human Ckappa; also called 15G11-D17) VH: QVQLVESGGGLVKPGGSLRLSCAASGFTFSDYSMSWIRQAPGKGLEWVSTISDSGTYTYYPDSVKGRFTISRDNAKNSLYLQMNSLRAEDTAVYYCAREWGDYDGFDFWGQGTLVTVSS VL: DIQMTQSPSSLSASVGDRVTITCRASQEISSYLSWYQQKPGKAPKLLIYAASSLDTGVPSRFSGSGSGTDFTLTISSLQPEDFATYYCLQYDSSPYTFGGGTKVEIK : binds
15G11-DI10 IgG1 (antibody, V domains shown, Human IgG1 format, human Ckappa) VH: QVQLVESGGGLVKPGGSLRLSCAASGFTFSDYGMSWVRQAPGKGLEWVSTISDSGSYTYYPDSVKGRFTISRDNAKNSLYLQMNSLRAEDTAVYYCARELGDYDGFDYWGQGTLVTVSS VL: DIQMTQSPSSLSASVGDRVTITCRASQEISSYLSWYQQKPGKAPKLLAYAASSLDSGVPSRFSGSGSGTDFTLTISSLQPEDFATYYCLQYDSTPYTFGGGTKVEIK : binds
15G11-DI2 IgG1 (antibody, V domains shown, Human IgG1 format, human Ckappa) VH: QVQLVESGGGLVKPGGSLRLSCAASGFTFSDYGMSWVRQAPGKGLEWVSTISDSGSYTYYPDSVKGRFTISRDNAKNSLYLQMNSLRAEDTAVYYCARELGDYDGFDYWGQGTLVTVSS VL: DIQMTQSPSSLSASVGDRVTITCRASQEISTYLSWYQQKPGKAPKLLIYAASSLDTGVPSRFSGSGSGTDFTLTISSLQPEDFATYYCLQYDSTPYTFGGGTKVEIK : binds
